# test_system: histidine-tagged recombinant human TrkA, cytoplasmic domain (Homo sapiens (Human), UniProt P04629)
# Sequence (P04629 440-796): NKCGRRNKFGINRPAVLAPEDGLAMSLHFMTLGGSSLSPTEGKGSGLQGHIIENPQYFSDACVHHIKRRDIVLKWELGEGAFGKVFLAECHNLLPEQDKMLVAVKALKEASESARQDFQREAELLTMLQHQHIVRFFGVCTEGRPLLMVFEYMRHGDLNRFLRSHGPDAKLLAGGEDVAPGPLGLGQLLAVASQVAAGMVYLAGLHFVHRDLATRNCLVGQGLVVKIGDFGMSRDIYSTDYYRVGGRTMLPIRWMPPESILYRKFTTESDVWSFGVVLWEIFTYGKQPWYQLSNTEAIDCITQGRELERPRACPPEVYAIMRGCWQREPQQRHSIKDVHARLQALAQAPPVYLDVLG
# protocol_details: TrkA ELISA Assay
# assay_setup: 2.5 nM TrkA, 500 μM ATP, 25 minutes; read-out: TrkA Elisa Enzyme IC50
pIC50: −log10 of the molar value.
quantity_measured: pIC50

test_smiles=O=C(Nc1cnn2ccc(N3CCC[C@@H]3c3cccc(F)c3)nc12)N1CC(O)C1 assay_result=6.94
test_smiles=O=C(Nc1cnn2ccc(N3CCC[C@@H]3c3cc(F)ccc3C(F)(F)F)nc12)N1CCC[C@H](O)C1 assay_result=7.84
test_smiles=O=C(Nc1cnn2ccc(N3CCC[C@@H]3c3cc(F)ccc3C(F)F)nc12)N1CC[C@H](O)C1 assay_result=8.06
test_smiles=O=C(Nc1cnn2ccc(N3CCC[C@@H]3c3cc(F)ccc3F)nc12)C(=O)N1CC(O)C1 assay_result=8.00
test_smiles=O=C(Nc1cnn2ccc(N3CCC[C@@H]3c3cc(F)ccc3Cl)nc12)N1CC[C@@H](O)C1 assay_result=8.39
test_smiles=Cc1cccnc1C(=O)Nc1cnn2ccc(N3CCC[C@@H]3c3cc(F)ccc3F)nc12 assay_result=8.77
test_smiles=CC(C)(C)NC(=O)Nc1cnn2ccc(N3CCC[C@@H]3c3cc(F)ccc3F)nc12 assay_result=7.65
test_smiles=O=C(Nc1cnn2ccc(N3CCC[C@@H]3c3cc(F)ccc3Cl)nc12)N1CCC(O)CC1 assay_result=7.55

----------
# test_system: histidine-tagged recombinant human TrkA, cytoplasmic domain (Homo sapiens (Human), UniProt P04629)
# protocol_details: TrkA ELISA Assay
# assay_setup: 2.5 nM TrkA, 500 μM ATP, 25 minutes; read-out: TrkA Elisa Enzyme IC50
pIC50: −log10 of the molar value. Where a name gives a salt, the structure may show the parent alone.
# pIC50 annotations
quantity_measured: pIC50

molecule=O=C(Nc1cnn2ccc(N3CCC[C@@H]3c3cc(F)ccc3C(F)F)nc12)N1CC(O)C1 quantity_measured=pIC50 assay_result=7.58
molecule="O=C(Nc1cnn2ccc(N3CCC[C@@H]3c3cc(F)ccc3Cl)nc12)C1CNC1 [Example 47, trifluoroacetate]" quantity_measured=pIC50 assay_result=6.72
molecule=O=C(Nc1cnn2ccc(N3CCC[C@@H]3c3cc(F)ccc3C(F)F)nc12)N1CCC(O)CC1 quantity_measured=pIC50 assay_result=7.07
molecule=COc1ccc(F)cc1[C@H]1CCCN1c1ccn2ncc(NC(=O)N3CC[C@H](O)C3)c2n1 quantity_measured=pIC50 assay_result=7.95

----------
# test_system: histidine-tagged recombinant human TrkA, cytoplasmic domain (Homo sapiens (Human), UniProt P04629)
# protocol_details: TrkA ELISA Assay
# Format: biochemical
# assay_setup: 2.5 nM TrkA, 500 μM ATP, 25 minutes; read-out: TrkA Elisa Enzyme IC50
pIC50: −log10 of the molar value.
# pIC50 annotations
quantity_measured: pIC50

test_smiles=O=C(Nc1cnn2ccc(N3CCC[C@@H]3c3cc(F)ccc3C(F)F)nc12)N1CC[C@@H](O)C1 assay_result=7.74
test_smiles=NC(=O)C(=O)Nc1cnn2ccc(N3CCC[C@@H]3c3cc(F)ccc3F)nc12 assay_result=8.33
test_smiles=Cn1ccc(C(=O)Nc2cnn3ccc(N4CCC[C@@H]4c4cccc(F)c4)nc23)n1 assay_result=8.07

----------
# test_system: histidine-tagged recombinant human TrkA, cytoplasmic domain (Homo sapiens (Human), UniProt P04629)
# protocol_details: TrkA ELISA Assay
# assay_setup: 2.5 nM TrkA, 500 μM ATP, 25 minutes; read-out: TrkA Elisa Enzyme IC50
Counter-ions that a name gives are not always drawn.
quantity_measured: IC50 (nM)

compound="O=C(Nc1cnn2ccc(N3CCC[C@@H]3c3cc(F)ccc3F)nc12)C1(O)CC1 [Example 65]" unit_string=nM assay_result=16.5
compound="CC1(C(=O)Nc2cnn3ccc(N4CCC[C@@H]4c4cc(F)ccc4Cl)nc23)CCNCC1 [Example 49, hydrochloride]" unit_string=nM assay_result=29.2
compound="O=C(Nc1cnn2ccc(N3CCC[C@@H]3c3cccc(F)c3)nc12)N1CCOCC1 [Example 9]" unit_string=nM assay_result=821
compound="O=C(Nc1cnn2ccc(N3CCC[C@@H]3c3cc(F)ccc3F)nc12)C(=O)N1CCOCC1 [Example 103]" unit_string=nM assay_result=82.4
compound="O=C(Nc1cnn2ccc(N3CCC[C@@H]3c3cc(F)ccc3F)nc12)c1cc(Cl)ccn1 [Example 62]" unit_string=nM assay_result=4
compound="O=C(Nc1cnn2ccc(N3CCC[C@@H]3c3cc(F)ccc3F)nc12)c1cccc(Cl)n1 [Example 71]" unit_string=nM assay_result=3.5
compound="O=C(Nc1cnn2ccc(N3CCC[C@@H]3c3cccc(F)c3)nc12)c1cc[nH]n1 [Example 74]" unit_string=nM assay_result=15.3
compound="O=C(Nc1cnn2ccc(N3CCC[C@@H]3c3cc(F)ccc3C(F)(F)F)nc12)N1CCC[C@@H](O)C1 [Example 86]" unit_string=nM assay_result=14

----------
# test_system: histidine-tagged recombinant human TrkA, cytoplasmic domain (Homo sapiens (Human), UniProt P04629)
# protocol_details: TrkA ELISA Assay
# assay_setup: 2.5 nM TrkA, 500 μM ATP, 25 minutes; read-out: TrkA Elisa Enzyme IC50
pIC50: −log10 of the molar value.
# pIC50 annotations
quantity_measured: pIC50

compound="CC(C)(CO)C(=O)Nc1cnn2ccc(N3CCC[C@@H]3c3cc(F)ccc3F)nc12 [Example 64]" assay_result=8.12
compound="COc1ccc(F)cc1[C@H]1CCCN1c1ccn2ncc(NC(=O)N3CCC[C@H](O)C3)c2n1 [Example 91]" assay_result=7.99
compound="O=C(Nc1ccc(Cl)cc1)Nc1cnn2ccc(N3CCC[C@@H]3c3cc(F)ccc3F)nc12 [Example 19]" assay_result=8.00
compound="O=C(Nc1cnn2ccc(N3CCC[C@@H]3c3cc(F)ccc3Cl)nc12)N1CC[C@H](O)C1 [Example 81]" assay_result=8.10
compound="CC(C)(F)C(=O)Nc1cnn2ccc(N3CCC[C@@H]3c3cc(F)ccc3F)nc12 [Example 54]" assay_result=7.85
compound="COc1cccc(C(=O)Nc2cnn3ccc(N4CCC[C@@H]4c4cccc(F)c4)nc23)n1 [Example 75]" assay_result=8.13
compound="CN(C)C(=O)Nc1cnn2ccc(N3CCC[C@@H]3c3cc(F)ccc3F)nc12 [Example 2]" assay_result=7.80
compound="O=C(Nc1cnn2ccc(N3CCC[C@@H]3c3cc(F)ccc3F)nc12)N1C[C@@H](O)[C@H](O)C1 [Example 15]" assay_result=7.88

----------
# test_system: histidine-tagged recombinant human TrkA, cytoplasmic domain (Homo sapiens (Human))
# protocol_details: TrkA ELISA Assay
# assay_setup: 2.5 nM TrkA, 500 μM ATP, 25 minutes; read-out: TrkA Elisa Enzyme IC50
Structures can show the parent of a compound that is named as a salt.
# log10 IC50 annotations
quantity_measured: log10 IC50 (log10 of the value in nM)

compound=O=C(Nc1cnn2ccc(N3CCC[C@@H]3c3cc(F)ccc3F)nc12)N1CC(O)C1 assay_result=1.32
compound="O=C(Nc1cnn2ccc(N3CCC[C@@H]3c3cc(F)ccc3F)nc12)C1CC(O)C1 (stereo partly drawn)" assay_result=1.44
compound=O=C(Nc1cnn2ccc(N3CCC[C@@H]3c3cc(F)ccc3F)nc12)C(=O)NC1CC1 assay_result=1.20
compound=CCS(=O)(=O)Nc1ccc(C(=O)Nc2cnn3ccc(N4CCC[C@@H]4c4cccc(F)c4)nc23)cc1 assay_result=1.66
compound=O=C(Nc1cnn2ccc(N3CCC[C@@H]3c3cc(F)ccc3C(F)F)nc12)N1CCC[C@H](O)C1 assay_result=1.49
compound=O=C(Nc1cnn2ccc(N3CCC[C@@H]3c3cc(F)ccc3F)nc12)[C@H]1CC[C@@H](O)C1 assay_result=1.31
compound="C[C@H]1CN(C(=O)Nc2cnn3ccc(N4CCC[C@@H]4c4cc(F)ccc4F)nc23)CCN1 [Example 31, hydrochloride]" assay_result=1.95
compound=Cc1cccc(C(=O)Nc2cnn3ccc(N4CCC[C@@H]4c4cc(F)ccc4F)nc23)n1 assay_result=0.62
compound=O=C(Nc1cnn2ccc(N3CCC[C@@H]3c3cc(F)cc(Cl)c3)nc12)N1CC[C@H](O)C1 assay_result=1.31

Each recorded value in this set is attributed to patent US8865698B2.
